Test system: THP-1
Experiment: Antiinflammatory activity against LPS-induced human THP-1 cells assessed as reduction in TNFalpha cytokine level preincubated for 1 hr followed by LPS-stimulation and measured after 6 hrs by enzyme immunoassay
Format: functional, cell-based
Recorded Endpoint: pIC50
The read-out pIC50 is expressed as -log10 of concentration in moles per litre.

Simply: Cc1ccc2nc(NCCN)c3ncc(C)n3c2c1 [BMS-345541] , THP-1, pIC50 = 6.00

###

Assay: Tmax in BALB/c mouse at 10 mg/kg, po measured upto 8 hrs by LC-MS-MS analysis
Format: ADME, organism-based
Details: in vivo
Recorded Endpoint: Tmax

The recorded Tmax for Cc1ccc2nc(NCCN)c3ncc(C)n3c2c1 is 31.2 min
